Assay summary: Selectivity index, ratio of ED50 for human HepG2 cells to MIC for Staphylococcus aureus 3R7089 strain Oxford/ATCC 9144
Type: toxicity
Settings: read-out: Selectivity Index
Square brackets hold non-standard residues; d marks the D form. Peptide text beside a SMILES is read from it. N(4-F-Bzl)Gly = O=C(O)CNCc1ccc(F)cc1; Gly(N-(CH2)6NH2) = NCCCCCCNCC(=O)O; Nphe = O=C(O)CNCc1ccccc1; Nlys = NCCCCNCC(=O)O
Assign labels as follows, please: Met for selectivity ratio below 10; Not met for selectivity ratio equal to or exceeding 10.

Previously resolved entries follow.
[
  {
    "Compound": "CCCCCNCC(=O)N(CC(=O)N(CC(=O)N(CCCCN)CC(=O)N(CC(=O)N(CC(=O)N(CCCCN)CC(=O)N(CC(=O)N(CC(=O)N(CCCCN)CC(=O)N(CC(=O)N(CC(N)=O)[C@@H](C)c1ccccc1)[C@@H](C)c1ccccc1)C(C)c1ccccc1)[C@@H](C)c1ccccc1)[C@@H](C)c1ccccc1)[C@@H](C)c1ccccc1)C(C)c1ccccc1)[C@@H](C)c1ccccc1 (single isomer, unassigned)",
    "Group label": "Met"
  },
  {
    "Compound": "NCCCCCCNCC(=O)N(CC(=O)N(CC(=O)N(CCCCCCN)CC(=O)N(CC(=O)N(CC(N)=O)Cc1ccccc1)Cc1ccccc1)Cc1ccccc1)Cc1ccccc1 (H-[Gly(N-(CH2)6NH2)][Nphe][Nphe][Gly(N-(CH2)6NH2)][Nphe][Nphe]-NH2)",
    "Group label": "Met"
  },
  {
    "Compound": "N=C(N)NCCCCNCC(=O)N(CC(=O)N(CC(=O)N(CCCCNC(=N)N)CC(=O)N(CC(=O)N(CC(=O)N(CCCCNC(=N)N)CC(=O)N(CC(=O)N(CC(=O)N(CCCCNC(=N)N)CC(=O)N(CC(=O)N(CC(N)=O)Cc1cccc(F)c1)Cc1cccc(F)c1)Cc1cccc(F)c1)Cc1cccc(F)c1)Cc1cccc(F)c1)Cc1cccc(F)c1)Cc1cccc(F)c1)Cc1cccc(F)c1",
    "Group label": "Not met"
  },
  {
    "Compound": "NCCCCNCC(=O)N(CC(=O)N(CC(=O)N(CCCCN)CC(=O)N(CC(=O)N(CC(=O)N(CCCCN)CC(=O)N(CC(=O)N(CC(N)=O)Cc1ccc(F)cc1)Cc1ccc(F)cc1)Cc1ccc(F)cc1)Cc1ccc(F)cc1)Cc1ccc(F)cc1)Cc1ccc(F)cc1 (H-[Nlys][N(4-F-Bzl)Gly][N(4-F-Bzl)Gly][Nlys][N(4-F-Bzl)Gly][N(4-F-Bzl)Gly][Nlys][N(4-F-Bzl)Gly][N(4-F-Bzl)Gly]-NH2)",
    "Group label": "Not met"
  },
  {
    "Compound": "COc1ccc(CN(CC(N)=O)C(=O)CN(Cc2ccc(OC)cc2)C(=O)CN(CCCCN)C(=O)CN(Cc2ccc(OC)cc2)C(=O)CN(Cc2ccc(OC)cc2)C(=O)CN(CCCCN)C(=O)CN(Cc2ccc(OC)cc2)C(=O)CN(Cc2ccc(OC)cc2)C(=O)CN(CCCCN)C(=O)CN(Cc2ccc(OC)cc2)C(=O)CN(Cc2ccc(OC)cc2)C(=O)CNCCCCN)cc1",
    "Group label": "Not met"
  }
]

Consider the additional compound presented here.
Incoming: Would you kindly verify if selectivity ratio of CC(c1ccccc1)N(CC(=O)N(CCN)CC(=O)N(CC(=O)N(CC(=O)N(CCN)CC(=O)N(CC(=O)N(CC(N)=O)[C@@H](C)c1ccccc1)[C@@H](C)c1ccccc1)C(C)c1ccccc1)[C@@H](C)c1ccccc1)C(=O)CN(C(=O)CNCCN)C(C)c1ccccc1 (single isomer, unassigned) is strictly less than 10?
Outgoing: Not met
